target: His tagged PTPN2 (TC45) protein (Homo sapiens, UniProt P17706); construct: made in house; assay: Mobility Shift Assay used to determine potency of PTPN2 inhibitors; type: biochemical; conditions: Table 2; read-out: PTPN2 MSA IC50
Sequence (P17706 with tags, fused parts or gaps isoform P17706-2): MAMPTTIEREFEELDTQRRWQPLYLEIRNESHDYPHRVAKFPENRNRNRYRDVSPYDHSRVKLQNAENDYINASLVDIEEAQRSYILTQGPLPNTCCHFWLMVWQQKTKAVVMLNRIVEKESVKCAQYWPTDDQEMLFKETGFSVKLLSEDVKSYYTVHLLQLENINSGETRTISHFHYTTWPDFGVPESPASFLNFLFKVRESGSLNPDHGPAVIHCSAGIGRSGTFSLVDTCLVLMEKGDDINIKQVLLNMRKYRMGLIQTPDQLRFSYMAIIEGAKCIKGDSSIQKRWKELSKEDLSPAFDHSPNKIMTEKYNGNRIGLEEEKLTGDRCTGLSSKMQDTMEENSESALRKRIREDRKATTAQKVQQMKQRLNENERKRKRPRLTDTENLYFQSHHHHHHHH
Experimental endpoint: IC50

Before answering, review these 2 worked examples.
> print(dat)
                                   compound  experimental.endpoint  recorded.measurement
1  COCCN(C)CCOc1ccc2cc(O)c(N3CC(=O)NS3(=O)=O)c(F)c2c1                   IC50          10 to 100 nM
2  O=C1CN(c2c(O)cc3cc(O)c(OCCC4CC4)cc3c2F)S(=O)(=O)N1                   IC50                < 1 nM

Quick one: give me IC50 for each item below, same order please.
1. CCc1cc2c(F)c(N3CC(=O)NS3(=O)=O)c(O)cc2cc1O
2. O=C1CN(c2c(O)cc3ccc(OCCN4CCNC4=O)cc3c2F)S(=O)(=O)N1
3. O=C1CN(c2c(O)cc3cc(OCCCC(F)F)ccc3c2F)S(=O)(=O)N1
4. O=C1CN(c2c(O)cc3ccc(OCCC4COC4)cc3c2F)S(=O)(=O)N1
5. O=C1CN(c2c(O)cc3cc(O)c(OCCC4CCOC4)cc3c2F)S(=O)(=O)N1 (centres unmarked)
6. CC(C)CCOc1ccc2c(F)c(N3CC(=O)NS3(=O)=O)c(O)cc2c1

Out:
1: 1 to 10 nM; 2: < 1 nM; 3: 10 to 100 nM; 4: 1 to 10 nM; 5: < 1 nM; 6: 10 to 100 nM

Quick one: give me IC50 for each item below, same order please.
1. C[C@](O)(CO)CCOc1cc2c(F)c(N3CC(=O)NS3(=O)=O)c(O)cc2cc1O
2. CC(C)(O)CCOc1cc2c(F)c(N3CC(=O)NS3(=O)=O)c(O)cc2cc1O
3. C[C@@](O)(CC#N)CCOc1ccc2cc(O)c(N3CC(=O)NS3(=O)=O)c(F)c2c1
4. O=C1CN(c2c(O)cc3cc(O)c(OCCCC(F)F)cc3c2F)S(=O)(=O)N1
5. O=C1CN(c2c(O)cc3cc(O)ccc3c2F)S(=O)(=O)N1

Out:
< 1 nM
< 1 nM
< 1 nM
< 1 nM
< 1 nM

// each compound listed below needs its IC50
1. C[C@@](O)(CO)CCOc1ccc2cc(O)c(N3CC(=O)NS3(=O)=O)c(F)c2c1
2. O=C1CN(c2c(O)cc3ccc(C4=CCN(CCC5CC5)C4)cc3c2F)S(=O)(=O)N1
3. O=C1CN(c2c(O)cc3cc(NCC4CC4)ccc3c2F)S(=O)(=O)N1
4. O=C1CN(c2c(O)cc3ccc(OCCC4(CO)CCC4)cc3c2F)S(=O)(=O)N1

Out:
1. < 1 nM
2. 10 to 100 nM
3. 10 to 100 nM
4. < 1 nM

###

biological target: His tagged full-length PTP1B protein (Homo sapiens, UniProt P18031)
Sequence (P18031 with tags, fused parts or gaps): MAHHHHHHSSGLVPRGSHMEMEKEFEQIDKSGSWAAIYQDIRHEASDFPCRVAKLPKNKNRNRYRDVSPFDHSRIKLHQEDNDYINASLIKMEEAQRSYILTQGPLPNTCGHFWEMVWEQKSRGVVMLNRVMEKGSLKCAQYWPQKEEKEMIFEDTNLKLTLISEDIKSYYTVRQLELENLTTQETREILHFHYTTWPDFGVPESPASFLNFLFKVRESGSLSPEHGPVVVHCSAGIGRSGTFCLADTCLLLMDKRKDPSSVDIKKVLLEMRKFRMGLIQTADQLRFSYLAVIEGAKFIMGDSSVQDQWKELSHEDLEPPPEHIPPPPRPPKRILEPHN
pIC50: −log10 of the molar value.
Please respond with reported pIC50 for every item in the list.

> print(dat)
                            molecule.smiles  recorded.measurement
1  COc1ccc2cc(O)c(N3CC(=O)NS3(=O)=O)c(F)c2c1          8.00 to 9.00

Need pIC50 for each of these compounds.
1. CS(=O)(=O)N1CC(Nc2ccc3cc(O)c(N4CC(=O)NS4(=O)=O)c(F)c3c2)C1
2. O=C1CN(c2c(O)cc3ccc(C4=CCN(CC5CC5)C4)cc3c2F)S(=O)(=O)N1
3. COCCOc1ccc2cc(O)c(N3CC(=O)NS3(=O)=O)c(F)c2c1
4. O=C(O)CNc1ccc2cc(O)c(N3CC(=O)NS3(=O)=O)c(F)c2c1
5. O=C1CN(c2c(O)cc3ccc(O)cc3c2F)S(=O)(=O)N1
6. O=C1CN(c2c(O)cc3ccc(NCCN4CCC4)cc3c2F)S(=O)(=O)N1
7. O=C1CN(c2c(O)cc3ccc(CC4CCN(S(=O)(=O)C5CC5)CC4)cc3c2F)S(=O)(=O)N1

Out:
1. 8.00 to 9.00
2. 8.00 to 9.00
3. 8.00 to 9.00
4. < 7.00
5. < 7.00
6. < 7.00
7. 7.00 to 8.00

For every record below, what is its pIC50?
1. O=C1CN(c2c(O)cc3ccc(NCCC(F)(F)F)cc3c2F)S(=O)(=O)N1
2. C[C@@H](O)CCOc1ccc2cc(O)c(N3CC(=O)NS3(=O)=O)c(F)c2c1

Out:
7.00 to 8.00
8.00 to 9.00

Provide each entry's pIC50 from the list below.
1. CCC(=O)CCOc1ccc2cc(O)c(N3CC(=O)NS3(=O)=O)c(F)c2c1
2. CC(C)NC(=O)Oc1ccc2cc(O)c(N3CC(=O)NS3(=O)=O)c(F)c2c1
3. CC(C)(O)CCNc1ccc2c(F)c(N3CC(=O)NS3(=O)=O)c(O)cc2c1
4. O=C1CN(c2c(O)cc3ccc(C4=CCN(S(=O)(=O)c5ccsc5)C4)cc3c2F)S(=O)(=O)N1

Out:
1: 8.00 to 9.00; 2: 7.00 to 8.00; 3: 7.00 to 8.00; 4: > 9.00

###

Entries with their measured IC50, system His tagged full-length PTP1B protein (Homo sapiens, UniProt P18031):

Example entries begin here.
> print(dat)
                                    molecule  experimental.endpoint  recorded.measurement
 1  CP(C)(=O)N1CC=C(c2ccc3cc(O)c(N4CC(=O)NS4(=O)=O)c(F)c3c2)C1                   IC50            1 to 10 nM
 2  O=C1CN(c2c(O)cc3ccc(C4CN(C(=O)C5CC5)C4)cc3c2F)S(=O)(=O)N1                   IC50            1 to 10 nM
 3  COc1ccc2c(F)c(O)c(N3CC(=O)NS3(=O)=O)c(F)c2c1                   IC50            1 to 10 nM
 4  C[C@H](O)CCOc1ccc2cc(O)c(N3CC(=O)NS3(=O)=O)c(F)c2c1                   IC50            1 to 10 nM
 5  O=C1CN(c2c(O)cc3ccc(C4=CCN(S(=O)(=O)C5CCC5)C4)cc3c2F)S(=O)(=O)N1                   IC50                < 1 nM
 6  C[C@@H](O)CCCc1ccc2cc(O)c(N3CC(=O)NS3(=O)=O)c(F)c2c1                   IC50            1 to 10 nM
 7  N#CCCCCOc1ccc2cc(O)c(N3CC(=O)NS3(=O)=O)c(F)c2c1                   IC50            1 to 10 nM
 8  O=C1CN(c2c(O)cc3ccc(C4=CCN(S(=O)(=O)C5CC5)CC4)cc3c2F)S(=O)(=O)N1                   IC50            1 to 10 nM
 9  CC(O)(CO)CCOc1ccc2cc(O)c(N3CC(=O)NS3(=O)=O)c(F)c2c1 (stereo not drawn)                   IC50                < 1 nM
10  CNCC(C)(C)CCOc1ccc2cc(O)c(N3CC(=O)NS3(=O)=O)c(F)c2c1                   IC50              > 100 nM

Could you tell me IC50 for each of these molecules? They are listed below.
1. O=C1CN(c2c(O)cc3ccc(C4=CCNC4)cc3c2F)S(=O)(=O)N1
2. CS(=O)(=O)N1CCC(Oc2ccc3cc(O)c(N4CC(=O)NS4(=O)=O)c(F)c3c2)CC1
3. NCCOc1ccc2c(F)c(N3CC(=O)NS3(=O)=O)c(O)cc2c1
4. N#CCc1ccc2cc(O)c(N3CC(=O)NS3(=O)=O)c(F)c2c1
5. O=C1CN(c2c(O)cc3ccc(OCCC4CC4)cc3c2F)S(=O)(=O)N1
6. O=C(CNc1ccc2cc(O)c(N3CC(=O)NS3(=O)=O)c(F)c2c1)NCCC1CC1

Out:
1: 1 to 10 nM; 2: 1 to 10 nM; 3: 10 to 100 nM; 4: 10 to 100 nM; 5: < 1 nM; 6: 10 to 100 nM

###

biological target: His tagged full-length PTP1B protein (Homo sapiens); construct: made in house; test: Mobility Shift Assay (MSA) used to determine potency of PTP1B inhibitors; assay type: biochemical; settings: Table 2
pIC50: −log10 of the molar value.
Give measured pIC50 for each item. Keep answers brief.

Go through the items and report each one's pIC50.
1. COc1ccc2c(Cl)c(O)c(N3CC(=O)NS3(=O)=O)c(F)c2c1 [Compound 238]
2. O=C1CN(c2c(O)cc3ccc(OCCN4CCC4)cc3c2F)S(=O)(=O)N1 [Compound 105]
3. CCOCCCOc1ccc2cc(O)c(N3CC(=O)NS3(=O)=O)c(F)c2c1 [Compound 216]
4. CC(C)NCCOc1ccc2cc(O)c(N3CC(=O)NS3(=O)=O)c(F)c2c1 [Compound 145]
5. Nc1ccc2c(F)c(N3CC(=O)NS3(=O)=O)c(O)cc2c1 [Compound 329]

Out:
["< 7.00", "8.00 to 9.00", "8.00 to 9.00", "7.00 to 8.00", "7.00 to 8.00"]
